Measurement target: Neuronal acetylcholine receptor subunit alpha-7 (Rattus norvegicus)
Sequence (Q05941 whole entry): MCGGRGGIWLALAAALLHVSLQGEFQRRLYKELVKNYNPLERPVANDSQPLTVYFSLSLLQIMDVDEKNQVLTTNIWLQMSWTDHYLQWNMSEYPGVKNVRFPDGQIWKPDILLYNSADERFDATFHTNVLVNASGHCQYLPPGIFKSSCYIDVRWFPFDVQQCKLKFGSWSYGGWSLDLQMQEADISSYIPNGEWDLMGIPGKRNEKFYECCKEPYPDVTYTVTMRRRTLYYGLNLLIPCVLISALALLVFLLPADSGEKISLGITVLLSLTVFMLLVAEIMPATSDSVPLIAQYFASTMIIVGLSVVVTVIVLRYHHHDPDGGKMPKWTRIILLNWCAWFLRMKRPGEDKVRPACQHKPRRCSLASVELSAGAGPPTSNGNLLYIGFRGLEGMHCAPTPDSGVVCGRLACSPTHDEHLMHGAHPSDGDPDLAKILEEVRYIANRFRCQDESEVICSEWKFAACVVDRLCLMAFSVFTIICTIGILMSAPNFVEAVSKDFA
Test protocol: Displacement of [3H]alpha-bungarotoxin from alpha-7 nAChR in rat cerebral cortex
Parameter: Ki (nM)
# number only, unit nM dropped from output

input: Which Ki value belongs to `C[N+](C)(C)CCC#Cc1ccc2ncccc2c1` ?
output: 142

input: Now give it for `C[N+]1(C)CCC[C@@H]1c1ccc2ncccc2c1` too.
output: 90

input: Now give it for `CN1CCC[C@@H]1c1ccc2ncccc2c1` too.
output: 8100

input: Now give it for `CN1CCC[C@H]1c1ccc2ncccc2c1` too.
output: 42000

input: Now give it for `C[N+]1(C)CCC[C@H]1c1ccc2ncccc2c1` too.
output: 1570

###

Measurement target: Neuronal acetylcholine receptor; alpha4/beta2 (Rattus norvegicus, UniProt P09483+P12390)
Sequence (P09483 whole entry): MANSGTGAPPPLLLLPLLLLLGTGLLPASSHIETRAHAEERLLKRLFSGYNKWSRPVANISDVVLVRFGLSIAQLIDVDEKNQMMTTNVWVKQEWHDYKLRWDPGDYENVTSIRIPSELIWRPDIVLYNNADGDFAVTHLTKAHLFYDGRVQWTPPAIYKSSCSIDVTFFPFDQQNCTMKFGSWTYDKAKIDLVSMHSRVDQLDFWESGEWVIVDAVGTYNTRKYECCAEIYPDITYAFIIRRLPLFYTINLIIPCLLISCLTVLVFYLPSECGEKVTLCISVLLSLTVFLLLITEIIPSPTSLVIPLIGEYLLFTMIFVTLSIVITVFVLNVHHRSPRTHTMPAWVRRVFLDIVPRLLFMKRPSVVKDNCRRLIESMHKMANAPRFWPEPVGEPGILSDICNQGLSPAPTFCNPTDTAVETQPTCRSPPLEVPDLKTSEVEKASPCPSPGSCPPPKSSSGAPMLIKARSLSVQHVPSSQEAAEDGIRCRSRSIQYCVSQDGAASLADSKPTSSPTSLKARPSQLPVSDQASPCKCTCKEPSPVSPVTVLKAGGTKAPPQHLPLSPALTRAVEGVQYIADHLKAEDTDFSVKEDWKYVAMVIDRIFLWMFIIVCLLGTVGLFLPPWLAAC
Sequence (P12390 whole entry): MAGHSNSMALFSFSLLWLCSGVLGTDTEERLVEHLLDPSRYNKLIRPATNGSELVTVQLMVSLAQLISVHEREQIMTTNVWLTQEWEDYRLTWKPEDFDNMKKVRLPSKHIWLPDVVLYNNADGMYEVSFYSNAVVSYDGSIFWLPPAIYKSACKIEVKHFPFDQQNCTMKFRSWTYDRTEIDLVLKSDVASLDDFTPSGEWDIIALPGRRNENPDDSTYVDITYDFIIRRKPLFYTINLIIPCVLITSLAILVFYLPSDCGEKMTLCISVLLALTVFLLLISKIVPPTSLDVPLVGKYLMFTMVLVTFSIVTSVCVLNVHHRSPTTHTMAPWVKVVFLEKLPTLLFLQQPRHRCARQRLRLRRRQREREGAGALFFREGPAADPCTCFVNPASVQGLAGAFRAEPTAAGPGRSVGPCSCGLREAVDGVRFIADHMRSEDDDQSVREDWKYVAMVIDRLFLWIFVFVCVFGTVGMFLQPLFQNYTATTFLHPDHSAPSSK
Test protocol: Displacement of [3H]cytisine from alpha-4-beta-2 nAChR in rat cerebral cortex
Format: tissue-based
Parameter: pKi
Friendly reminder that pKi comes from taking -log10 of the concentration in mol/L.

input: Which pKi value belongs to `C[N+]1(C)CCC[C@@H]1c1ccc2ncccc2c1` ?
output: 6.66

input: Now give it for `CN1CCC[C@H]1c1ccc2ncccc2c1` too.
output: 7.05

input: Now give it for `C[N+]1(C)CCC[C@H]1c1ccc2ncccc2c1` too.
output: 7.80

input: Now give it for `CN1CCC[C@@H]1c1ccc2ncccc2c1` too.
output: 5.71

input: Now give it for C[N+]1(C)CCCC1c1ccc2ncccc2c1 (racemic) too.
output: 7.35

input: Now give it for CN1CCCC1c1ccc2ncccc2c1 (racemic) too.
output: 6.88

###

Measurement target: Neuronal acetylcholine receptor; alpha4/beta2 (Rattus norvegicus, UniProt P09483+P12390)
Test protocol: Displacement of [3H]epibatidine from alpha-4-beta-2 nAChR in rat cerebral cortex
Format: tissue-based
Can you tell me Ki for the items I'm about to list?
# number only, unit nM dropped from output

input: Which Ki value belongs to `C[N+](C)(C)CCC#Cc1ccc2ncccc2c1` ?
output: 6800

input: Now give it for `C[N+]1(C)CCC[C@@H]1c1ccc2ncccc2c1` too.
output: 1400

input: Now give it for `C[N+]1(C)CCC[C@H]1c1ccc2ncccc2c1` too.
output: 42

input: Now give it for `CN1CCC[C@@H]1c1ccc2ncccc2c1` too.
output: 2100

input: Now give it for `CN1CCC[C@H]1c1ccc2ncccc2c1` too.
output: 124
